# Measured On: CDK9/cyclin T1 (Homo sapiens)
# Sequence (O60563 whole entry): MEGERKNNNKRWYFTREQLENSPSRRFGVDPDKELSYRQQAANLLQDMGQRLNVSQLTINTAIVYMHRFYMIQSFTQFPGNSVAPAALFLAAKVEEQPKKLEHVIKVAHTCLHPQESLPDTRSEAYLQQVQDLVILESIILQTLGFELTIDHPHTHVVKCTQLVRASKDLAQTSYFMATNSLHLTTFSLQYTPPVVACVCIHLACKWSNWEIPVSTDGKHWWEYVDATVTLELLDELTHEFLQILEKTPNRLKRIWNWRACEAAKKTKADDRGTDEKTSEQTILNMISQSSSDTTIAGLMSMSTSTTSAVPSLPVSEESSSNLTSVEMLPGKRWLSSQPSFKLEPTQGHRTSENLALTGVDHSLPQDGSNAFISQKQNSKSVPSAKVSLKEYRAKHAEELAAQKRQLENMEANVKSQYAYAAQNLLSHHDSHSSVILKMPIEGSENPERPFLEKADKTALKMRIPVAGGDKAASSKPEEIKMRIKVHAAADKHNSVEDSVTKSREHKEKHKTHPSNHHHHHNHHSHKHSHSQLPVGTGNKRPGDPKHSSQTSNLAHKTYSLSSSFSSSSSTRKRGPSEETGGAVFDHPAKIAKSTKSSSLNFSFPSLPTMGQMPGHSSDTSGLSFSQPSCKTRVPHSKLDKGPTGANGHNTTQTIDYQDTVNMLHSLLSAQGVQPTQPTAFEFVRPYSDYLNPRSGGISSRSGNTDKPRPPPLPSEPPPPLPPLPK
# Sequence (P50750 whole entry): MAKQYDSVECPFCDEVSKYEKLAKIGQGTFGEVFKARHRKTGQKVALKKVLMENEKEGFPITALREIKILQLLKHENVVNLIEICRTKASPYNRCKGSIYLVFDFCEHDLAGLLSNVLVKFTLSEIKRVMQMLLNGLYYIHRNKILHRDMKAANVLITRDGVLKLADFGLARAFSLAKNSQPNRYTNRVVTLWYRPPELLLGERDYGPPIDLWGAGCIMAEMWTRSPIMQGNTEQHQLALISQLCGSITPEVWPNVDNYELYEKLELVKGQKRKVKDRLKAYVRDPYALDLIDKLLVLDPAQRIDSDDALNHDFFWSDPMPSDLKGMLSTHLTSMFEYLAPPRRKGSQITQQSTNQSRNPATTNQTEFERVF
# Protocol Details: Inhibition of recombinant full length human CDK9/cyclinT1 using KTFCGTPEYLAPE as substrate incubated for 40 mins in presence of [gamma-33ATP] by radiometric scintillation counting analysis
pIC50: −log10 of the molar value.
Readout Label: pIC50

INPUT: Indicate its recorded pIC50; the molecule in question is CN(C)c1ccc(C(=O)Nc2cccc(NC(=O)COc3ccc4c(=O)ccoc4c3)c2)cc1
OUTPUT: < 5.00

###

# Measured On: Tyrosine-protein kinase Lck (Homo sapiens)
# Sequence (P06239 whole entry): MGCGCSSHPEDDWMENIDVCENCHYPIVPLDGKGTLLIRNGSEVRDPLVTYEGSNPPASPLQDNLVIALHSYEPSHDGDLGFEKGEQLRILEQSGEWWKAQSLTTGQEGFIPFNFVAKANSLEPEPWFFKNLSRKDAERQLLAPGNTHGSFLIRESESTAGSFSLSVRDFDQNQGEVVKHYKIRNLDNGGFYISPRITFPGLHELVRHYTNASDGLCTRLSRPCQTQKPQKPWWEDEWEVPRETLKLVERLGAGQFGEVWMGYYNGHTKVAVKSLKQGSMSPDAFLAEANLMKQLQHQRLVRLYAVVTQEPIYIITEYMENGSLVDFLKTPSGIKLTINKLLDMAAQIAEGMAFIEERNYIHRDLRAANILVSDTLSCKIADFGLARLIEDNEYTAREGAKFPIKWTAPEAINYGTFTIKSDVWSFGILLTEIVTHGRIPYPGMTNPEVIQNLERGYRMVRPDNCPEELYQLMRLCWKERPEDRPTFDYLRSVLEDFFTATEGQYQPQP
# Protocol Details: Inhibition of recombinant full length activated human LCK using […] as substrate after 40 mins in presence of [gamma-33ATP] by radiometric scintillation counting analysis
pIC50: −log10 of the molar value.
Readout Label: pIC50

INPUT: Indicate its recorded pIC50; the compound in question is CN(C)c1ccc(C(=O)Nc2cccc(NC(=O)COc3ccc4c(=O)ccoc4c3)c2)cc1
OUTPUT: < 5.00

###

# Measured On: Calcium/calmodulin-dependent protein kinase type IV (Homo sapiens)
# Sequence (Q16566 whole entry): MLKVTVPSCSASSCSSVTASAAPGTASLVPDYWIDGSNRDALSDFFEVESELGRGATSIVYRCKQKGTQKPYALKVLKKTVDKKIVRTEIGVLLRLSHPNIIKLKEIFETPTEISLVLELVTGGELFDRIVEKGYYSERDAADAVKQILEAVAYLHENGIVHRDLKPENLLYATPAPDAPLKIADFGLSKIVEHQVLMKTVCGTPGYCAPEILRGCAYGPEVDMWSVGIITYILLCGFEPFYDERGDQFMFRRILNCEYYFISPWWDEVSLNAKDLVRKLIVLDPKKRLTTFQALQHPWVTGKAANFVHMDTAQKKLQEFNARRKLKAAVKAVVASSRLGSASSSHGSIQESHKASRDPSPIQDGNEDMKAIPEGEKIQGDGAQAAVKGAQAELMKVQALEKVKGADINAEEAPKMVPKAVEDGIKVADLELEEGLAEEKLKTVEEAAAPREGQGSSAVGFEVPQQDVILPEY
# Protocol Details: Inhibition of recombinant full length human CaMK4 using calmodulin as substrate incubated for 40 mins in presence of [gamma-33ATP] by radiometric scintillation counting analysis
Readout Label: IC50

INPUT: Indicate its recorded IC50; the molecule in question is CN(C)c1ccc(C(=O)Nc2cccc(NC(=O)COc3ccc4c(=O)ccoc4c3)c2)cc1
OUTPUT: > 10 µM

###

# Measured On: Serine/threonine-protein kinase TAO1 (Homo sapiens)
# Sequence (Q7L7X3 whole entry, the tested form may be a part): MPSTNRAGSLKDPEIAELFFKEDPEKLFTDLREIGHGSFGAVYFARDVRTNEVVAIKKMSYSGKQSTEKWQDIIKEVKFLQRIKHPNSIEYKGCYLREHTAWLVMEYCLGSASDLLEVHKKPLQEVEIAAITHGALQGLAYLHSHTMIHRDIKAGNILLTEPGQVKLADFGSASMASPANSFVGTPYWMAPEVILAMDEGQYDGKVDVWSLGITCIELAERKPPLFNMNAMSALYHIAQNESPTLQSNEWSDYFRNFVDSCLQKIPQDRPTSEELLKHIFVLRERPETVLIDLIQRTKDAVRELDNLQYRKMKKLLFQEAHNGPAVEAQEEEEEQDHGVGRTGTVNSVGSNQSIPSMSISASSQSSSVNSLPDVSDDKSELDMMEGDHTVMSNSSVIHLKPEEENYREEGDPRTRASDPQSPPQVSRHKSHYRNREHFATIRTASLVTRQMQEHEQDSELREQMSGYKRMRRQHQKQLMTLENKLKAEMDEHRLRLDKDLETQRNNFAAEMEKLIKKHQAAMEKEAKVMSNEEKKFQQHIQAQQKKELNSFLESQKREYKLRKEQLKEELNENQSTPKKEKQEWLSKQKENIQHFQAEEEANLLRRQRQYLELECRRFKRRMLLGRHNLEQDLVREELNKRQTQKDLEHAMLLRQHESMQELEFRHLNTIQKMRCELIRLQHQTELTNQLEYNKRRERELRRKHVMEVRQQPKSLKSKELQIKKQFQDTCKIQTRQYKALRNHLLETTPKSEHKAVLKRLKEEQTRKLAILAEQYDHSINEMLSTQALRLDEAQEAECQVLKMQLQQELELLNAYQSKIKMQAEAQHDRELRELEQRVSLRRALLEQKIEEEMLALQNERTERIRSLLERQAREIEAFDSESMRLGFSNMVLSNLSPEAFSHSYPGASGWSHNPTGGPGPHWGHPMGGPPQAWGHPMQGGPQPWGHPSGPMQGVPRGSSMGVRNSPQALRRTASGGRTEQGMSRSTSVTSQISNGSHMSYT
# Protocol Details: Inhibition of recombinant human TAO1 (1 to 327 residues) using myelin basic protein as substrate incubated for 40 mins in presence of [gamma33P]ATP by radiometric scintillation counting analysis
Readout Label: IC50

INPUT: Indicate its recorded IC50; the compound in question is CN(C)c1ccc(C(=O)Nc2cccc(NC(=O)COc3ccc4c(=O)ccoc4c3)c2)cc1
OUTPUT: > 10 µM

###

pIC50: −log10 of the molar value.
Readout Label: pIC50

INPUT: GET pIC50 | system: Serine/threonine-protein kinase 16 (Homo sapiens) | item: CN(C)c1ccc(C(=O)Nc2cccc(NC(=O)COc3ccc4c(=O)ccoc4c3)c2)cc1
OUTPUT: < 5.00

###

# Measured On: Tyrosine-protein kinase Fes/Fps (Homo sapiens, UniProt P07332)
# Sequence (P07332 whole entry): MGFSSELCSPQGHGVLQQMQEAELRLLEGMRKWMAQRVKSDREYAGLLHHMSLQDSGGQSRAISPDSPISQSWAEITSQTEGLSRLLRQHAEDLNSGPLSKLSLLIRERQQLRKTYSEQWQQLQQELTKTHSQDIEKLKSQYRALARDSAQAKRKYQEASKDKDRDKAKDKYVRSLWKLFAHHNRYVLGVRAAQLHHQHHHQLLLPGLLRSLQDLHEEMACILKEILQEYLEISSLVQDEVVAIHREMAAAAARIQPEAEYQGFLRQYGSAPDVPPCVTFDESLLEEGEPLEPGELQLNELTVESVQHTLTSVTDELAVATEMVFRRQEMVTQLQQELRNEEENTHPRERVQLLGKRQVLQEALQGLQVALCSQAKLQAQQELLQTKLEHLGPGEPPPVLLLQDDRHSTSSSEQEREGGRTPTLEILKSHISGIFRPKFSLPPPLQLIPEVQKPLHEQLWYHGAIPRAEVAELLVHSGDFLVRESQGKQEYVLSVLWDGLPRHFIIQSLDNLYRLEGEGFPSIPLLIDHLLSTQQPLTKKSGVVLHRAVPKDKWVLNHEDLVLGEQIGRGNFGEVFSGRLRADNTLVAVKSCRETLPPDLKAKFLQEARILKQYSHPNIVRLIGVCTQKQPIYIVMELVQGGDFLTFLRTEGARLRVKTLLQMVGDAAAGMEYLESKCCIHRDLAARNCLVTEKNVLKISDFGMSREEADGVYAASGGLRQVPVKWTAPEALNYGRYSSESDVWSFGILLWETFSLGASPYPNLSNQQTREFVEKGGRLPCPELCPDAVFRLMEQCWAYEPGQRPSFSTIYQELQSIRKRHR
# Protocol Details: Inhibition of recombinant human FES (2 to end residues) using poly(Glu, Tyr) 4:1 as substrate after 40 mins in presence of [gamma-33ATP] by radiometric scintillation counting analysis
Readout Label: IC50

INPUT: GET IC50 | system: Tyrosine-protein kinase Fes/Fps (Homo sapiens, UniProt P07332) | item: CN(C)c1ccc(C(=O)Nc2cccc(NC(=O)COc3ccc4c(=O)ccoc4c3)c2)cc1
OUTPUT: > 10 µM

###

# Protocol Details: Inhibition of recombinant human PKCeta V108L/G109R/L392Q triple mutant (2 to end residues) using ERMRPRKRQGSVRR as substrate incubated for 40 mins in presence of [gamma33P]ATP by radiometric scintillation counting analysis
pIC50: −log10 of the molar value.
Readout Label: pIC50

INPUT: Indicate its recorded pIC50; the compound in question is CN(C)c1ccc(C(=O)Nc2cccc(NC(=O)COc3ccc4c(=O)ccoc4c3)c2)cc1
OUTPUT: < 5.00

###

# Measured On: Death-associated protein kinase 3 (Homo sapiens)
# Sequence (O43293 whole entry, the tested form may be a part): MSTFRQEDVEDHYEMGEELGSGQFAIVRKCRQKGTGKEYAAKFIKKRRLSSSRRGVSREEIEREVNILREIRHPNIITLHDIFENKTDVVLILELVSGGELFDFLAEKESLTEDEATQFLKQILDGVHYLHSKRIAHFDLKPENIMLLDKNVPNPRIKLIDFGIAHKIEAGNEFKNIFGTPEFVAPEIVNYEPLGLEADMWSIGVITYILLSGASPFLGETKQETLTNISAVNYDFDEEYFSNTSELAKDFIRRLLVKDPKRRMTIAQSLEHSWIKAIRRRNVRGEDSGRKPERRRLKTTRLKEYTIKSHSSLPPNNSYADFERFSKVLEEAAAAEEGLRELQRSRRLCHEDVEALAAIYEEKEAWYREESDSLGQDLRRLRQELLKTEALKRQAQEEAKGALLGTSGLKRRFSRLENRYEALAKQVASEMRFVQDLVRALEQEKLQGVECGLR
# Protocol Details: Inhibition of recombinant human ZIPK (1 to 290 residues) using KKLNRTLSFAEPG substrate incubated for 40 mins in presence of [gamma33P]ATP by radiometric scintillation counting analysis
pIC50: −log10 of the molar value.
Readout Label: pIC50

INPUT: Indicate its recorded pIC50; the compound in question is CN(C)c1ccc(C(=O)Nc2cccc(NC(=O)COc3ccc4c(=O)ccoc4c3)c2)cc1
OUTPUT: < 5.00
